FYI, the data here is from ChEMBL document CHEMBL1153470.

- assayText: in vivo
- conditionLabel: female, Sprague-Dawley, rat, plasma, sc, 3 mg/kg
measurementLabel: AUC (µM·h)
Give just the number in µM·h; leave the unit off.

Ask | Looking for the measured AUC of `C[C@]12CCC(=O)C[C@@H]1CC[C@@H]1[C@@H]2CC[C@]2(C)[C@@H](O)CC[C@@H]12` , can you help?
Reply | 0.02

---

- assayText: AUC in ovariectomized Sprague-Dawley rat at 1 mg/kg, sc
- conditionLabel: female, plasma
measurementLabel: AUC (µM·h)
Record the value in µM·h, omitting the unit from your answer.

Ask | # get_value(readout='AUC', item= `Cc1ncc(/C=C2\C[C@H]3[C@@H]4CC[C@H]5N(C)C(=O)C=C[C@]5(C)[C@H]4CC[C@]3(C)[C@H]2O)cn1` )
Reply | 17

---

- assayText: AUC in ovariectomized Sprague-Dawley rat at 10 mg/kg, sc
- Assay type: ADME, organism-based
- Set-up: dose 10 mg/kg, route subcutaneous
- conditionLabel: female, plasma
measurementLabel: AUC (µM·h)
The figure you give is taken to be in µM·h; do not add the unit.

Ask | Form field: reported AUC of `CN1C(=O)C=C[C@]2(C)[C@H]3CC[C@]4(C)[C@@H](O)/C(=C/c5cncnc5)C[C@H]4[C@@H]3CC[C@@H]12`
Reply | 17

---

- assayText: Aqueous solubility at pH 2
- Format: physicochemical
Assignment: determine reported solubility for the given compounds.
Report only the number, with the unit µg/mL understood.

Ask | // lookup solubility for `CN1C(=O)C=C[C@]2(C)[C@H]3CC[C@]4(C)[C@@H](O)/C(=C/c5cncnc5)C[C@H]4[C@@H]3CC[C@@H]12`
Reply | 570

Ask | Reported solubility for `Cc1ncc(/C=C2\C[C@H]3[C@@H]4CC[C@H]5N(C)C(=O)C=C[C@]5(C)[C@H]4CC[C@]3(C)[C@H]2O)cn1` : what is it?
Reply | 230

---

- assayText: Oral bioavailability in Beagle dog at 1 mg/kg
- Type: ADME, organism-based, Canis lupus familiaris
- conditionLabel: in vivo
measurementLabel: bioavailability (%)
A number alone suffices; assume %.

Ask | Dear colleague, I am looking for the recorded bioavailability of the following molecule: `CN1C(=O)C=C[C@]2(C)[C@H]3CC[C@]4(C)[C@@H](O)/C(=C/c5cccnc5)C[C@H]4[C@@H]3CC[C@@H]12`
Reply | 21

Ask | Entry `CN1C(=O)C=C[C@]2(C)[C@H]3CC[C@]4(C)[C@@H](O)/C(=C/c5cncnc5)C[C@H]4[C@@H]3CC[C@@H]12` has what bioavailability?
Reply | 51

---

- assayText: AUC in orchidectomized Sprague-Dawley rat at 10 mg/kg, sc
- Type: ADME, organism-based
- Parameters: dose 10 mg/kg, route subcutaneous
- conditionLabel: male, plasma
measurementLabel: AUC (µM·h)
# number only, unit µM·h dropped from output

Ask | Report AUC for `CN1C(=O)C=C[C@]2(C)[C@H]3CC[C@]4(C)[C@@H](O)/C(=C/c5cncnc5)C[C@H]4[C@@H]3CC[C@@H]12` please.
Reply | 4.3

---

Assignment: determine reported clearance for the given compounds.
- assayText: Clearance in Beagle dog at 0.2 mg/kg, iv
- Type: ADME, organism-based, Canis lupus familiaris
- Design: dose 0.2 mg/kg, route intravenous
- conditionLabel: in vivo
Provide only the numeric value, understood in mL/min/kg.

Ask | Need clearance, item `CN1C(=O)C=C[C@]2(C)[C@H]3CC[C@]4(C)[C@@H](O)/C(=C/c5cncnc5)C[C@H]4[C@@H]3CC[C@@H]12`
Reply | 15.3

Ask | I would be grateful if you could share the reported clearance for `CNc1ncc(/C=C2\C[C@H]3[C@@H]4CC[C@H]5N(C)C(=O)C=C[C@]5(C)[C@H]4CC[C@]3(C)[C@H]2O)cn1` .
Reply | 0.8

Ask | Sample `COC[C@@H]1C[C@H]2[C@@H]3CC[C@H]4N(C)C(=O)C=C[C@]4(C)[C@H]3CC[C@]2(C)[C@H]1O` — what was its clearance?
Reply | 11

Ask | Consider the compound `CN1C(=O)C=C[C@]2(C)[C@H]3CC[C@]4(C)[C@@H](O)/C(=C/c5cc(F)cc(F)c5)C[C@H]4[C@@H]3CC[C@@H]12` and give its measured clearance.
Reply | 6.8

---

- assayText: Clearance in Beagle dog at 0.2 mg/kg, iv
- Assay type: ADME, organism-based, Canis lupus familiaris
- Design: dose 0.2 mg/kg, route intravenous
- conditionLabel: in vivo
What log10 of clearance was measured for each of the following?
Annotation: log10 of clearance, mL/min/kg basis.

Ask | Need log10 of clearance of `Cc1ncc(/C=C2\C[C@H]3[C@@H]4CC[C@H]5N(C)C(=O)C=C[C@]5(C)[C@H]4CC[C@]3(C)[C@H]2O)cn1` , thanks.
Reply | 0.18

Ask | Which log10 of clearance value is on record for `CN1C(=O)C=C[C@]2(C)[C@H]3CC[C@]4(C)[C@@H](O)/C(=C/c5cccc(F)c5)C[C@H]4[C@@H]3CC[C@@H]12` ?
Reply | 1.18

Ask | Entry `CN1C(=O)C=C[C@]2(C)[C@H]3CC[C@]4(C)[C@@H](O)CC[C@H]4[C@@H]3CC[C@@H]12` has what log10 of clearance?
Reply | 1.51

Ask | Look up log10 of clearance for this molecule: `C[C@@H]1C[C@H]2[C@@H]3CC[C@H]4N(C)C(=O)C=C[C@]4(C)[C@H]3CC[C@]2(C)[C@H]1O`
Reply | 1.31

Ask | Looking for the measured log10 of clearance of `CN1C(=O)C=C[C@]2(C)[C@H]3CC[C@]4(C)[C@@H](O)[C@H](Cc5cccc(F)c5)C[C@H]4[C@@H]3CC[C@@H]12` , can you help?
Reply | 1.34

Ask | Data request, read-out log10 of clearance, for `C/C=C1\C[C@H]2[C@@H]3CC[C@H]4N(C)C(=O)C=C[C@]4(C)[C@H]3CC[C@]2(C)[C@H]1O`
Reply | 1.63

Ask | Name the reported log10 of clearance value associated with the molecule `CN1C(=O)C=C[C@]2(C)[C@H]3CC[C@]4(C)[C@@H](O)/C(=C/c5cccnc5)C[C@H]4[C@@H]3CC[C@@H]12`
Reply | 0.70

Ask | May I ask what log10 of clearance has been recorded for `COc1ncc(/C=C2\C[C@H]3[C@@H]4CC[C@H]5N(C)C(=O)C=C[C@]5(C)[C@H]4CC[C@]3(C)[C@H]2O)cn1` ?
Reply | 0.66

---

- assayText: Half life in Beagle dog at 0.2 mg/kg, iv
- Type: ADME, organism-based, Canis lupus familiaris
- Design: dose 0.2 mg/kg, route intravenous
- conditionLabel: in vivo
Label scheme, based on half-life: low class: < 2 h; middle class: ≥ 2 h and < 10 h; high class: ≥ 10 h

Ask | Classify this compound: `CN1C(=O)C=C[C@]2(C)[C@H]3CC[C@]4(C)[C@@H](O)[C@H](Cc5cccc(F)c5)C[C@H]4[C@@H]3CC[C@@H]12`
Reply | middle class

Ask | Lab log: `COc1ncc(/C=C2\C[C@H]3[C@@H]4CC[C@H]5N(C)C(=O)C=C[C@]5(C)[C@H]4CC[C@]3(C)[C@H]2O)cn1` — assign half-life category
Reply | high class

Ask | Form field 'band' for `Cc1ncc(/C=C2\C[C@H]3[C@@H]4CC[C@H]5N(C)C(=O)C=C[C@]5(C)[C@H]4CC[C@]3(C)[C@H]2O)cn1`
Reply | high class

Ask | Category of `CN1C(=O)C=C[C@]2(C)[C@H]3CC[C@]4(C)[C@@H](O)/C(=C/c5cncnc5)C[C@H]4[C@@H]3CC[C@@H]12` :
Reply | middle class

Ask | The entry to classify is `CN1C(=O)C=C[C@]2(C)[C@H]3CC[C@]4(C)[C@@H](O)CC[C@H]4[C@@H]3CC[C@@H]12` ; which class holds it?
Reply | low class

Ask | Record `C[C@@H]1C[C@H]2[C@@H]3CC[C@H]4N(C)C(=O)C=C[C@]4(C)[C@H]3CC[C@]2(C)[C@H]1O` — which class?
Reply | low class

Ask | Class for `C/C=C1\C[C@H]2[C@@H]3CC[C@H]4N(C)C(=O)C=C[C@]4(C)[C@H]3CC[C@]2(C)[C@H]1O` ?
Reply | low class

Ask | Form field 'band' for `CN1C(=O)C=C[C@]2(C)[C@H]3CC[C@]4(C)[C@@H](O)/C(=C/c5cccc(F)c5)C[C@H]4[C@@H]3CC[C@@H]12`
Reply | middle class

Ask | Any idea which band `COC[C@@H]1C[C@H]2[C@@H]3CC[C@H]4N(C)C(=O)C=C[C@]4(C)[C@H]3CC[C@]2(C)[C@H]1O` is in?
Reply | low class

Ask | Lab note: sort `CNc1ncc(/C=C2\C[C@H]3[C@@H]4CC[C@H]5N(C)C(=O)C=C[C@]5(C)[C@H]4CC[C@]3(C)[C@H]2O)cn1` into the matching half-life band.
Reply | high class

Ask | // return the class label for `CN1C(=O)C=C[C@]2(C)[C@H]3CC[C@]4(C)[C@@H](O)/C(=C/c5cccnc5)C[C@H]4[C@@H]3CC[C@@H]12`
Reply | high class

Ask | Which half-life category applies to `CN1C(=O)C=C[C@]2(C)[C@H]3CC[C@]4(C)[C@@H](O)/C(=C/c5cc(F)cc(F)c5)C[C@H]4[C@@H]3CC[C@@H]12` here?
Reply | middle class
